# credit: the kinase profiling compilation of Christmann-Franck et al. (2016)

residual activity values by entry
# ASSAYED_TARGET: MARK1 (human) (UniProt Q9P0L2)
# Sequence (Q9P0L2 whole entry, looked up): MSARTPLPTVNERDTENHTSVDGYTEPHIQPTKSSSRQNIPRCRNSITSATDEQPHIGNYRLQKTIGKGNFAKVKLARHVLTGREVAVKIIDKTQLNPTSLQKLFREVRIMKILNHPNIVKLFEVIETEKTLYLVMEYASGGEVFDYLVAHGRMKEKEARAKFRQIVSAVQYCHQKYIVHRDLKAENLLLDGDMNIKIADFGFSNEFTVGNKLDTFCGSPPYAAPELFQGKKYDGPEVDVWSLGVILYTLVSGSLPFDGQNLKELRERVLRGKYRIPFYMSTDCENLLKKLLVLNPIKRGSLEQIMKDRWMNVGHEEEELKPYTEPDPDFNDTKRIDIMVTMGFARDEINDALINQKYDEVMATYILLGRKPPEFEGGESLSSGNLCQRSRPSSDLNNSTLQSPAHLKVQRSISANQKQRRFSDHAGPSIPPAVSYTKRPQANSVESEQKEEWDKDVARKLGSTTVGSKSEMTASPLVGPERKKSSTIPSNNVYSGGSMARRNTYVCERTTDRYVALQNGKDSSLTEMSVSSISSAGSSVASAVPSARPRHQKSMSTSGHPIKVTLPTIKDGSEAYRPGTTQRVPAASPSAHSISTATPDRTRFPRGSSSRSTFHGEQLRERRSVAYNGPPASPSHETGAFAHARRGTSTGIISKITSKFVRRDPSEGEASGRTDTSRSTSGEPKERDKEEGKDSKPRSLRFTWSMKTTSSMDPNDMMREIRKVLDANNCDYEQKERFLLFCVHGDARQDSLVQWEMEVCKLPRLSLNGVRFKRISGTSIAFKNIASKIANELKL
# ASSAY_REMARKS: radiometric filter-binding kinase assay, Kinase HotSpot
# TEST_CONDITIONS: compound 0.5 µM; ATP 10 µM
Numbers only; they are read as %.

CC(C)c1nn(-c2c(Cl)cccc2Cl)c2nc(Cc3ccc(OCCO)cc3)nc(O)c12 93.3

Data request: Determine from records and report residual activity for "O=C(CCCc1ccc(-c2ccccc2F)cc1)Nc1ccc(O)cc1"
Data returned: 96.7

Data request: Determine from records and report residual activity for "O=C1NC(=O)C(c2cn(CCCO)c3ncccc23)=C1c1cnccn1"
Data returned: 95

Data request: Determine from records and report residual activity for "Nc1nccc(-c2c(-c3ccc(F)cc3)ncn2C2CCNCC2)n1"
Data returned: 97.9

Data request: Determine from records and report residual activity for "Cn1nc2c3c(cccc31)C(=O)c1ccccc1-2"
Data returned: 95.7

* * *

residual activity values by entry
# ASSAYED_TARGET: FGFR2 (human)
# ASSAY_REMARKS: radiometric filter-binding kinase assay, Kinase HotSpot
# TEST_CONDITIONS: compound 0.5 µM; ATP 10 µM
Numbers only; they are read as %.

O=C1NC(=O)C(c2cn(CCCO)c3ncccc23)=C1c1cnccn1 103
Cn1cnc2cc3c(Nc4cccc(Br)c4)ncnc3cc21 98
COc1ccc(OC)c2c(=S)c3ccccc3[nH]c12 95.8
Nc1nnc2[nH]c3ccccc3nc1-2 98.1
Cc1nc2cc3nc(-c4cccs4)cnc3cc2n1C 91.8

// switching to the query molecule
Data request: State the measured residual activity (FGFR2 (human)) of "O=C1Cc2c([nH]c3ccc(Br)cc23)-c2ccccc2N1"
Data returned: 100

* * *

# ASSAYED_TARGET: PIM3 (human) (UniProt Q86V86)
# ASSAY_REMARKS: radiometric filter-binding kinase assay, Kinase HotSpot
# TEST_CONDITIONS: compound 0.5 µM; ATP 10 µM
ENDPOINT: residual activity (%)
Numbers only; they are read as %.

Here are 2 compounds together with their reported answers.
COMPOUND	ASSAYED_TARGET	residual activity / %
O=C1Nc2ccccc2/C1=C1/Nc2ccccc2/C1=N\OCCC(O)CO (stereo not drawn)	PIM3 (human) (UniProt Q86V86)	58.5
CN(C)C[C@H]1CCn2c(c(C3=C(c4cn(C)c5ccccc45)C(=O)NC3=O)c3ccccc32)C1	PIM3 (human) (UniProt Q86V86)	83.1

Data request: Determine from records and report residual activity for "CN([C@@H](Cc1ccc(OS(=O)(=O)c2cccc3cnccc23)cc1)C(=O)N1CCN(c2ccccc2)CC1)S(=O)(=O)c1cccc2cnccc12"
Data returned: 113

* * *

# ASSAYED_TARGET: AURKC (human) (UniProt Q9UQB9)
# Sequence (Q9UQB9 whole entry, looked up): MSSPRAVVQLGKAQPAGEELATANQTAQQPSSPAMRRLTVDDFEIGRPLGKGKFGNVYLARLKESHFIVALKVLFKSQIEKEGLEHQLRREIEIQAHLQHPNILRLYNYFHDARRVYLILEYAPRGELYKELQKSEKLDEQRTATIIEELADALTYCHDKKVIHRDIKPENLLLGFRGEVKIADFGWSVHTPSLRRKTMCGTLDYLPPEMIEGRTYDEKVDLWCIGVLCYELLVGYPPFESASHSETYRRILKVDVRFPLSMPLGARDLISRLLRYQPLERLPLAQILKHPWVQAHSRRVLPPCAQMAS
# ASSAY_REMARKS: radiometric filter-binding kinase assay, Kinase HotSpot
# TEST_CONDITIONS: compound 0.5 µM; ATP 10 µM
ENDPOINT: residual activity
I'd appreciate it if you included the unit after the number.

Here are 5 compounds together with their reported answers.
COMPOUND	ENDPOINT	RESULT
O=C(Nc1cccc(Nc2cc(Nc3cccc(C(F)(F)F)c3)ncn2)c1)C1CC1	residual activity	104%
Nc1nccc(-c2c(-c3ccc(F)cc3)ncn2C2CCNCC2)n1	residual activity	97.8%
Cc1nc2cc3nc(-c4cccs4)cnc3cc2n1C	residual activity	93.3%
Cn1cnc2cc3c(Nc4cccc(Br)c4)ncnc3cc21	residual activity	96.5%
COc1ccc(OC)c2c(=S)c3ccccc3[nH]c12	residual activity	88.2%

Data request: State the measured residual activity (AURKC (human) (UniProt Q9UQB9)) of "O=C1Nc2ccccc2/C1=C1\Nc2ccccc2\C1=N/O"
Data returned: 56.4%

Data request: State the measured residual activity (AURKC (human) (UniProt Q9UQB9)) of "CC(C)[C@H](CO)Nc1nc(Nc2cc(N)cc(Cl)c2)c2ncn(C(C)C)c2n1"
Data returned: 91.9%

Data request: State the measured residual activity (AURKC (human) (UniProt Q9UQB9)) of "Cn1nc2c3c(cccc31)C(=O)c1ccccc1-2"
Data returned: 89.3%

Data request: State the measured residual activity (AURKC (human) (UniProt Q9UQB9)) of "CCN(CC)CCCCN1c2ccccc2Oc2ccc(Cl)cc21"
Data returned: 99.3%

Data request: State the measured residual activity (AURKC (human) (UniProt Q9UQB9)) of O=C1Nc2ccccc2/C1=C1/Nc2ccccc2/C1=N\OCCC(O)CO (configuration not stated)
Data returned: 43.2%

Data request: State the measured residual activity (AURKC (human) (UniProt Q9UQB9)) of "O=C1NC(=O)/C(=C\c2ccc3nccnc3c2)S1"
Data returned: 95.6%

Data request: State the measured residual activity (AURKC (human) (UniProt Q9UQB9)) of "O=C1NC(=O)C(c2cn(CCCO)c3ncccc23)=C1c1cnccn1"
Data returned: 113%
